Taken from BindingDB's records for doi:10.1016/j.bioorg.2015.10.005.

measured on: Urease subunit alpha (Sporosarcina pasteurii)
Sequence (P41020 as listed by the source): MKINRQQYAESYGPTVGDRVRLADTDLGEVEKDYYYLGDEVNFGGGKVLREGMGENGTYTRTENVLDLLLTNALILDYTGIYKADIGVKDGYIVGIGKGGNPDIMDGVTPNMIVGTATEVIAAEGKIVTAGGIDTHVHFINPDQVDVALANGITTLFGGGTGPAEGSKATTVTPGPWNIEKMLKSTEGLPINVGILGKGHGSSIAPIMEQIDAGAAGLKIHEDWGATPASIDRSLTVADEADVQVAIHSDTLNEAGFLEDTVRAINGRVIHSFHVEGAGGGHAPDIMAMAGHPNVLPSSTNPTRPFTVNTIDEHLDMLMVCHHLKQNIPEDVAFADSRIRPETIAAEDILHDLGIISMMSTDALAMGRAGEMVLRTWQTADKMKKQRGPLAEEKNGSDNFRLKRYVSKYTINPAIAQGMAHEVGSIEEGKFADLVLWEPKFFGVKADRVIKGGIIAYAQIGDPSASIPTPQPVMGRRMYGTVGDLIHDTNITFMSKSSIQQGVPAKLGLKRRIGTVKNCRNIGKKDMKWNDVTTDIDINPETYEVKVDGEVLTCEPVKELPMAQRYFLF
test method notes: Urease Inhibition Assay
condition description: pH 7
experimental endpoint: IC50 (µM)

Worked cases, answers included:
O=C1CS/C(=N/N=C/c2cccc([N+](=O)[O-])c2)N1 = 8.43
COc1cccc(/C=N/N=C2\NC(=O)CS2)c1OC = 52.5
O=C1CS/C(=N/N=C/c2cc(Cl)cc(Cl)c2O)N1 = 26.7
COc1cc(/C=N/N=C2\NC(=O)CS2)cc(OC)c1O = 37.9
NC(N)=S [thiocarbamide] = 21.2

(a) O=C1CS/C(=N/N=C/c2ccccc2[N+](=O)[O-])N1
(b) O=C1CSC(N/N=C/c2ccc([N+](=O)[O-])cc2)=N1
(c) C/C(=N/N=C1\NC(=O)CS1)c1ccc([N+](=O)[O-])cc1Br
IN: # sort list by recorded IC50, greatest to least Reply with the item labels sorted in the order that was asked for.
OUT: a, b, c

(P) O=C1CS/C(=N/N=C\c2ccc(O)cc2)N1
(Q) COc1cc(/C=N/N=C2\NC(=O)CS2)cc(Br)c1OC
IN: Hey, between P and Q which has a smaller measured IC50? Let me know the label of the one you choose.
OUT: P
(P: 14.6 µM, Q: 36.6 µM)

(a) O=C1CS/C(=N/N=C\C2C=Nc3ccccc32)N1 (centres undefined)
(b) CCOc1ccc(/C=N\N=C2/NC(=O)CS2)cc1OC
IN: Record comparison, field IC50: mark the lower of a and b . Output the label that corresponds to your choice.
OUT: b

(P) COc1ccc(/C=N\N=C2/NC(=O)CS2)c(OC)c1
(Q) O=C1CS/C(=N/N=C\c2ccc(O)c(Cl)c2)N1
IN: From the recorded data, which exceeds the other in IC50: P or Q ? Response format: the label of the selected entry.
OUT: P
(P: 69.6 µM, Q: 9.34 µM)
